Tested on: MCF-10A cells
ASSAY_COMMENT: Resazurin-based cell viability assay, monotherapy drug screen
Design: species or system human
SETTINGS: 24 h drug treatment, read-out: IC50
Listed next: entries and their corresponding IC50.
Respond with the figure and its unit, in that order.

>  <MOLECULE>
N.N.O=C([O-])C1(C(=O)[O-])CCC1.[Pt+2]

>  <IC50>
0.73 µM

$$$$
>  <MOLECULE>
CC[C@H](C)[C@H](NC(=O)[C@H]([C@@H](C)CC)N(C)C(C)=O)C(=O)N[C@H](C(=O)N[C@@H](CC(C)C)C(=O)[C@@]1(C)CO1)[C@@H](C)O

>  <IC50>
0.088 µM

$$$$
>  <MOLECULE>
[NH2][Pt]1([NH2])[O]CC(=O)[O]1

>  <IC50>
0.075 µM

$$$$

// recorded IC50 for N.N.[Cl][Pt][Cl] [Cisplatin] : 0.027 µM
